Target: gluthathione reductase (GR) (Homo sapiens)
Sequence (P00390 44-522): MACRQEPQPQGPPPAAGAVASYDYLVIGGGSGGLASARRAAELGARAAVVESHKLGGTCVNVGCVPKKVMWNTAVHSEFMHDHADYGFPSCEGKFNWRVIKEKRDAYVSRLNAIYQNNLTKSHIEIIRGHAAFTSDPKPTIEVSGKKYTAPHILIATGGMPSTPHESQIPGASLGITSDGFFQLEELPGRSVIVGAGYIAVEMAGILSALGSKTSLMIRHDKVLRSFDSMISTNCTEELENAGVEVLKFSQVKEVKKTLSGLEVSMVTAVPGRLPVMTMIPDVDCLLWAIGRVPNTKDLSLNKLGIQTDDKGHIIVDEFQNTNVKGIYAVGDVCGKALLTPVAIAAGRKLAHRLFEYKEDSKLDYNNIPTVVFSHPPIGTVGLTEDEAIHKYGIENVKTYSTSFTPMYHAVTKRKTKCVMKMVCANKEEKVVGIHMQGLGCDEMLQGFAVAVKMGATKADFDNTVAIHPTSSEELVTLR
Assay: Inhibition of recombinant GR (GSSG assay)
Details: 2 nM GR, 250 μM NADPH, 15 minutes incubation, 1 mM GSSG, O.D. at 340 nm
parameter: IC50

Could you share which IC50 value was measured for O=c1c(Cl)c(Cl)cnn1Cc1nnc(-c2ccc(Cl)cc2)o1 ? > 100 µM
